# Tested on: A549
# procedureDetails: Antiproliferative activity against human A549 cells assessed as inhibition of cell growth incubated for 48 hrs by CCK-8 reagent based spectrophotometric analysis
# Format: functional
# recordedConditions: A549, 48 h
Consider the following molecules; for each one, report its IC50.

# get_value(readout= IC50, system= A549) for `C=C(C)[C@@H]1CC[C@]2(C(=O)O)CC[C@]3(C)[C@H](CC[C@@H]4[C@@]5(C)C[C@@H](Cc6cn([C@]7(CO)O[C@@H](n8ccc(N)nc8=O)[C@@H](F)[C@@H]7O)nn6)[C@H](O)C(C)(C)[C@@H]5CC[C@]43C)[C@@H]12`
> 100 µM

One more molecule: `C=C(C)[C@@H]1CC[C@]2(C(=O)OC)CC[C@]3(C)[C@H](CC[C@@H]4[C@@]5(C)C[C@@H](Cc6cn([C@]7(CO)O[C@@H](n8ccc(N)nc8=O)[C@H](O)[C@@H]7O)nn6)C(=O)C(C)(C)[C@@H]5CC[C@]43C)[C@@H]12`
> 100 µM

One more molecule: `C=C(C)[C@@H]1CC[C@]2(C(=O)OC)CC[C@]3(C)[C@H](CC[C@@H]4[C@@]5(C)C[C@@H](Cc6cn([C@H]7C[C@H](n8cc(C)c(O)nc8=O)O[C@@H]7CO)nn6)C(=O)C(C)(C)[C@@H]5CC[C@]43C)[C@@H]12`
11.9 µM

One more molecule: `C=C(C)[C@@H]1CC[C@]2(C(=O)OC)CC[C@]3(C)[C@H](CC[C@@H]4[C@@]5(C)C[C@@H](Cc6cn([C@]7(CO)O[C@@H](n8ccc(N)nc8=O)[C@H](O)[C@@H]7O)nn6)[C@H](O)C(C)(C)[C@@H]5CC[C@]43C)[C@@H]12`
> 100 µM

---

# System: A549
# procedureDetails: Antiproliferative activity against human A549 cells assessed as inhibition of cell growth incubated for 48 hrs by CCK-8 reagent based spectrophotometric analysis
# Assay type: functional
# recordedConditions: A549, 48 h
pIC50: −log10 of the molar value.
assayEndpoint: pIC50

I'd like to know its pIC50. The compound in question is `C=C(C)[C@@H]1CC[C@]2(C(=O)OC)CC[C@]3(C)[C@H](CC[C@@H]4[C@@]5(C)C[C@@H](Cc6cn([C@]7(CO)O[C@@H](n8ccc(N)nc8=O)[C@@H](F)[C@@H]7O)nn6)[C@H](O)C(C)(C)[C@@H]5CC[C@]43C)[C@@H]12`
< 4.00

One more compound: `C=C(C)[C@@H]1CC[C@]2(C(=O)O)CC[C@]3(C)[C@H](CC[C@@H]4[C@@]5(C)C[C@@H](Cc6cn([C@]7(CO)O[C@@H](n8ccc(O)nc8=O)[C@@H](F)[C@@H]7O)nn6)[C@H](O)C(C)(C)[C@@H]5CC[C@]43C)[C@@H]12`
< 4.00

One more compound: `C=C(C)[C@@H]1CC[C@]2(C(=O)OC)CC[C@]3(C)[C@H](CC[C@@H]4[C@@]5(C)C[C@@H](Cc6cn([C@]7(CO)O[C@@H](n8ccc(O)nc8=O)[C@@H](F)[C@@H]7O)nn6)C(=O)C(C)(C)[C@@H]5CC[C@]43C)[C@@H]12`
4.75

One more compound: `C=C(C)[C@@H]1CC[C@]2(C(=O)O)CC[C@]3(C)[C@H](CC[C@@H]4[C@@]5(C)C[C@@H](Cc6cn([C@]7(CO)O[C@@H](n8ccc(N)nc8=O)[C@H](O)[C@@H]7O)nn6)[C@H](O)C(C)(C)[C@@H]5CC[C@]43C)[C@@H]12`
< 4.00

All values here come from ChEMBL document CHEMBL5608177.
